# PROTOCOL: Sunitinib multiple-dose pharmacokinetics
# Assay type: in vivo, patients
# CONDITION SUMMARY: human, plasma, oral, AUCtau, subject 1002; multiple dose (dose 14), sunitinib 50 mg daily with everolimus 30 mg weekly; dosing interval 24 hours
READOUT: AUC (ng·h/mL)

COMPOUND: CCN(CC)CCNC(=O)c1c(C)[nH]c(/C=C2\C(=O)Nc3ccc(F)cc32)c1C [Sunitinib, Sunitinib malate]
QUANTITY UNIT: ng·h/mL
NUMERIC VALUE: 2770

====

# PROTOCOL: Sunitinib multiple-dose pharmacokinetics
# Assay type: in vivo, patients
# CONDITION SUMMARY: human, plasma, oral, AUCtau, subject 1001; multiple dose (dose 14), sunitinib 50 mg daily with everolimus 30 mg weekly; dosing interval 24 hours
READOUT: AUC

COMPOUND: CCN(CC)CCNC(=O)c1c(C)[nH]c(/C=C2\C(=O)Nc3ccc(F)cc32)c1C [Sunitinib, Sunitinib malate]
RESULT: 1860 ng·h/mL

====

# PROTOCOL: Sunitinib multiple-dose pharmacokinetics
# Assay type: in vivo, patients
# CONDITION SUMMARY: human, plasma, oral, CL/F, subject 1002; multiple dose (dose 14), sunitinib 50 mg daily with everolimus 30 mg weekly; dose/AUCtau
READOUT: CL/F (mL/min/kg)

COMPOUND: CCN(CC)CCNC(=O)c1c(C)[nH]c(/C=C2\C(=O)Nc3ccc(F)cc32)c1C [Sunitinib, Sunitinib malate]
NUMERIC VALUE: 3.12

====

# PROTOCOL: Sunitinib multiple-dose pharmacokinetics
# Assay type: in vivo, patients
# CONDITION SUMMARY: human, plasma, oral, AUCtau, subject 1003; multiple dose (dose 14), sunitinib 50 mg daily with everolimus 30 mg weekly; dosing interval 24 hours

MOLECULE: CCN(CC)CCNC(=O)c1c(C)[nH]c(/C=C2\C(=O)Nc3ccc(F)cc32)c1C [Sunitinib, Sunitinib malate]
AUC: 2300 ng·h/mL

====

# PROTOCOL: Sunitinib multiple-dose pharmacokinetics
# Type: in vivo, patients
# CONDITION SUMMARY: human, plasma, oral, Cmax, subject 1001; multiple dose (dose 14), sunitinib 50 mg daily with everolimus 30 mg weekly

COMPOUND: CCN(CC)CCNC(=O)c1c(C)[nH]c(/C=C2\C(=O)Nc3ccc(F)cc32)c1C [Sunitinib, Sunitinib malate]
Cmax [ng/mL]: 83.1

====

# PROTOCOL: Sunitinib multiple-dose pharmacokinetics
# Type: in vivo, patients
# CONDITION SUMMARY: human, plasma, oral, CL/F, subject 1003; multiple dose (dose 14), sunitinib 50 mg daily with everolimus 30 mg weekly; dose/AUCtau

COMPOUND: CCN(CC)CCNC(=O)c1c(C)[nH]c(/C=C2\C(=O)Nc3ccc(F)cc32)c1C [Sunitinib, Sunitinib malate]
CL/F, mL/min/kg: 5.34

====

# PROTOCOL: Sunitinib multiple-dose pharmacokinetics
# Format: in vivo, patients
# CONDITION SUMMARY: human, plasma, oral, t1/2, subject 1002; multiple dose (dose 14), sunitinib 50 mg daily with everolimus 30 mg weekly

COMPOUND: CCN(CC)CCNC(=O)c1c(C)[nH]c(/C=C2\C(=O)Nc3ccc(F)cc32)c1C [Sunitinib, Sunitinib malate]
half-life (h): 33

====

# PROTOCOL: Sunitinib multiple-dose pharmacokinetics
# Type: in vivo, patients
# CONDITION SUMMARY: human, plasma, oral, Cmax, subject 1002; multiple dose (dose 14), sunitinib 50 mg daily with everolimus 30 mg weekly
READOUT: Cmax (ng/mL)

COMPOUND: CCN(CC)CCNC(=O)c1c(C)[nH]c(/C=C2\C(=O)Nc3ccc(F)cc32)c1C [Sunitinib, Sunitinib malate]
QUANTITY UNIT: ng/mL
NUMERIC VALUE: 142
